Test system: HCC 2998
Experiment: NCI tumour cell line growth inhibition, 48 h
Active and inactive are the calls of the source. No stated cut-off is given here; in the data, active = GI50 up to about 1.1 µM and inactive = higher.
Your response should consist of one outcome taken from T = active, F = inactive

Example cases with answers are listed next.
Cc1cc(C)nc(/C(=N\NC(N)=O)C(=O)Nc2nc3ccc(C)cc3s2)c1: F
CC(C)(C)c1cc2c3c(c1)c(=O)c1cccc4c(O)c5cccc(c2=O)c5c-3c41: T
Cn1c2ccccc2c(=O)c2c(O)cc3c(c21)C=CC1(CCCC1)O3: F
O=C1/C(=C/c2ccccc2)Oc2cc(O)ccc21: F
Cc1ccc(/C=C/C(=O)c2c([O-])on[n+]2-c2ccccc2)cc1: F
O=C1C=C(Nc2cccnc2)c2ccccc2/C1=N/O: F
CCc1nnc(S)n1/N=C/c1ccc(-c2ccc([N+](=O)[O-])cc2)o1: F
CCOC(=O)Nc1sc2c(c1C#N)CC(C)CC2 (centres undefined): F

As a next step, examine the molecule that follows.
Lookup: Which result was noted for this molecule in the test: CCOC(=O)NN(C(=O)OCC)c1ccc(/N=N/c2ccc(OC)cc2)n1C
Found: F

* * *

System: SNB-19
Test: NCI tumour cell line growth inhibition, 48 h
Calls of active or inactive are those of the source. No stated cut-off is given here; in the data, active = GI50 up to about 1.1 µM and inactive = higher.
QUANTITY KIND: GI50

Solved entries:
CO/C=C(\Br)c1ccc2c(c1)OCO2: > 100 µM (inactive)
N#Cc1c(N)nc2[nH]nc(N)c2c1-c1ccc(Cl)cc1: 29.2 µM (inactive)
O=C1/C(=C/C=C/c2ccccc2)CCC1CNc1ccc(Br)cc1 (stereo not drawn): > 100 µM (inactive)

Sure, the documented GI50 for O=C(CCN1CCOCC1)Nc1ccc(F)cc1F is > 100 µM (inactive)

Recorded GI50 (compound Cc1nsc2cc(Cl)n(C)c(=O)c12 ): > 100 µM (inactive)

Looking up Nc1nc(CCC(=O)Nc2cccc(C(F)(F)F)c2)cc(-c2ccc3ccccc3c2)n1 , I found its GI50 recorded as > 100 µM (inactive)

COc1cccc(N2N=C3c4ccccc4-n4c(nc5ccccc54)C3C2N)c1 (stereo not drawn) yielded GI50 of > 100 µM (inactive)

Summary for this compound, CSc1nc(SC)c2c(C)cn(C3OC(C)C(O)C(O)C3O)c2n1 (stereo not drawn) : GI50 is 57 µM (inactive)

GI50 recorded for this compound, COC(=O)C1=C(C(=O)OC)C2(C)Nc3ccccc3C2=C(c2ccccc2)C1 (stereo not drawn) , is 24 µM (inactive)

GI50 reading for O=C1c2cccc3cccc(c23)C(=O)N1CCCN1CCN(CCCN2C(=O)c3cccc4cccc(c34)C2=O)CC1 : > 100 µM (inactive)

* * *

The following compounds are listed with their measured GI50 values.
Test system: HCT-15

For this compound ( COc1cccc(OCC(=N/NC(=O)c2ccncc2)/N=C/c2ccncc2)c1 ), measured GI50 is > 100 µM

// sample CN(C)C(=O)NCCN1CCCCCc2ccccc21 , its GI50 was > 100 µM

What the record says about O=C1C=C(N2CCCC2)C(=O)c2c(O)ccc(O)c21 : GI50 is > 10 µM

Record summary for Cn1c2ccccc2c(=O)c2c(O)cc3c(c21)C=CC1(CCCC1)O3 : reported GI50 = > 100 µM

* * *

Tested on: OVCAR-8
Assay: NCI tumour cell line growth inhibition, 48 h
Active and inactive are the calls of the source. Cut-off read from the data, not from the text of the source: active = GI50 up to about 1.1 µM and inactive = higher.
Thanks in advance; please answer with one of these: YES (active), NO (inactive)

CCn1c(=O)c2cn[nH]c2n(C)c1=O: NO

Lookup: State the result this test recorded for O=C(O)c1cc(C(=O)O)nc(C(=O)O)c1 .
Found: NO

Lookup: State the result this test recorded for C/C(=N\O)c1ccc(Nc2nc3ccccc3c3occc23)cc1 .
Found: NO

Lookup: For CCCCCCCCCCCCCCCCCCOCC1(COP(=O)([O-])OCC[N+](C)(C)C)CCCO1 (centres undefined) , what call appears in the results of this test?
Found: NO

Lookup: # lookup: test call for CC(CCc1ccccc1)NCC(O)n1c(/N=N/N(C)C)nc2c1c(=O)n(C)c(=O)n2C (centres undefined)
Found: NO

Lookup: Which outcome was entered for the molecule COc1ccc2c(c1)/C(=C\c1c(Cl)nc3sc(C)cn13)C(=O)N2 in this test?
Found: NO

Lookup: Record lookup: outcome of this test for C=CCc1cc2cccc(OC)c2oc1=O ?
Found: NO

Lookup: // outcome(item) with item = COc1ccc2oc3cccc(NCCN(C)C)c3c(=O)c2c1
Found: NO

Lookup: Hi, do you know how COC1C(O)C(C)OC(OC2C(Oc3cccc4c(O)c5c(=O)oc6ccc(C)c7c(=O)oc(c34)c5c67)OC(C)C3O[C@H](c4ccccc4)OC32)C1O (some centres undefined) came out in this test?
Found: YES

Lookup: How was O=[N+]([O-])c1ccc(N2N=C(c3ccc(NCc4nc5ccccc5[nH]4)cc3)CC2c2ccco2)cc1 (centres undefined) classified in this test?
Found: NO
